- MEASURED TARGET: specific epitope on apoB-100 of LDL (Homo sapiens, UniProt P04114)
- Construct: from tissue; host or cells: LDL particles (plasma lipoprotein)
- Sequence (P04114 28-4563): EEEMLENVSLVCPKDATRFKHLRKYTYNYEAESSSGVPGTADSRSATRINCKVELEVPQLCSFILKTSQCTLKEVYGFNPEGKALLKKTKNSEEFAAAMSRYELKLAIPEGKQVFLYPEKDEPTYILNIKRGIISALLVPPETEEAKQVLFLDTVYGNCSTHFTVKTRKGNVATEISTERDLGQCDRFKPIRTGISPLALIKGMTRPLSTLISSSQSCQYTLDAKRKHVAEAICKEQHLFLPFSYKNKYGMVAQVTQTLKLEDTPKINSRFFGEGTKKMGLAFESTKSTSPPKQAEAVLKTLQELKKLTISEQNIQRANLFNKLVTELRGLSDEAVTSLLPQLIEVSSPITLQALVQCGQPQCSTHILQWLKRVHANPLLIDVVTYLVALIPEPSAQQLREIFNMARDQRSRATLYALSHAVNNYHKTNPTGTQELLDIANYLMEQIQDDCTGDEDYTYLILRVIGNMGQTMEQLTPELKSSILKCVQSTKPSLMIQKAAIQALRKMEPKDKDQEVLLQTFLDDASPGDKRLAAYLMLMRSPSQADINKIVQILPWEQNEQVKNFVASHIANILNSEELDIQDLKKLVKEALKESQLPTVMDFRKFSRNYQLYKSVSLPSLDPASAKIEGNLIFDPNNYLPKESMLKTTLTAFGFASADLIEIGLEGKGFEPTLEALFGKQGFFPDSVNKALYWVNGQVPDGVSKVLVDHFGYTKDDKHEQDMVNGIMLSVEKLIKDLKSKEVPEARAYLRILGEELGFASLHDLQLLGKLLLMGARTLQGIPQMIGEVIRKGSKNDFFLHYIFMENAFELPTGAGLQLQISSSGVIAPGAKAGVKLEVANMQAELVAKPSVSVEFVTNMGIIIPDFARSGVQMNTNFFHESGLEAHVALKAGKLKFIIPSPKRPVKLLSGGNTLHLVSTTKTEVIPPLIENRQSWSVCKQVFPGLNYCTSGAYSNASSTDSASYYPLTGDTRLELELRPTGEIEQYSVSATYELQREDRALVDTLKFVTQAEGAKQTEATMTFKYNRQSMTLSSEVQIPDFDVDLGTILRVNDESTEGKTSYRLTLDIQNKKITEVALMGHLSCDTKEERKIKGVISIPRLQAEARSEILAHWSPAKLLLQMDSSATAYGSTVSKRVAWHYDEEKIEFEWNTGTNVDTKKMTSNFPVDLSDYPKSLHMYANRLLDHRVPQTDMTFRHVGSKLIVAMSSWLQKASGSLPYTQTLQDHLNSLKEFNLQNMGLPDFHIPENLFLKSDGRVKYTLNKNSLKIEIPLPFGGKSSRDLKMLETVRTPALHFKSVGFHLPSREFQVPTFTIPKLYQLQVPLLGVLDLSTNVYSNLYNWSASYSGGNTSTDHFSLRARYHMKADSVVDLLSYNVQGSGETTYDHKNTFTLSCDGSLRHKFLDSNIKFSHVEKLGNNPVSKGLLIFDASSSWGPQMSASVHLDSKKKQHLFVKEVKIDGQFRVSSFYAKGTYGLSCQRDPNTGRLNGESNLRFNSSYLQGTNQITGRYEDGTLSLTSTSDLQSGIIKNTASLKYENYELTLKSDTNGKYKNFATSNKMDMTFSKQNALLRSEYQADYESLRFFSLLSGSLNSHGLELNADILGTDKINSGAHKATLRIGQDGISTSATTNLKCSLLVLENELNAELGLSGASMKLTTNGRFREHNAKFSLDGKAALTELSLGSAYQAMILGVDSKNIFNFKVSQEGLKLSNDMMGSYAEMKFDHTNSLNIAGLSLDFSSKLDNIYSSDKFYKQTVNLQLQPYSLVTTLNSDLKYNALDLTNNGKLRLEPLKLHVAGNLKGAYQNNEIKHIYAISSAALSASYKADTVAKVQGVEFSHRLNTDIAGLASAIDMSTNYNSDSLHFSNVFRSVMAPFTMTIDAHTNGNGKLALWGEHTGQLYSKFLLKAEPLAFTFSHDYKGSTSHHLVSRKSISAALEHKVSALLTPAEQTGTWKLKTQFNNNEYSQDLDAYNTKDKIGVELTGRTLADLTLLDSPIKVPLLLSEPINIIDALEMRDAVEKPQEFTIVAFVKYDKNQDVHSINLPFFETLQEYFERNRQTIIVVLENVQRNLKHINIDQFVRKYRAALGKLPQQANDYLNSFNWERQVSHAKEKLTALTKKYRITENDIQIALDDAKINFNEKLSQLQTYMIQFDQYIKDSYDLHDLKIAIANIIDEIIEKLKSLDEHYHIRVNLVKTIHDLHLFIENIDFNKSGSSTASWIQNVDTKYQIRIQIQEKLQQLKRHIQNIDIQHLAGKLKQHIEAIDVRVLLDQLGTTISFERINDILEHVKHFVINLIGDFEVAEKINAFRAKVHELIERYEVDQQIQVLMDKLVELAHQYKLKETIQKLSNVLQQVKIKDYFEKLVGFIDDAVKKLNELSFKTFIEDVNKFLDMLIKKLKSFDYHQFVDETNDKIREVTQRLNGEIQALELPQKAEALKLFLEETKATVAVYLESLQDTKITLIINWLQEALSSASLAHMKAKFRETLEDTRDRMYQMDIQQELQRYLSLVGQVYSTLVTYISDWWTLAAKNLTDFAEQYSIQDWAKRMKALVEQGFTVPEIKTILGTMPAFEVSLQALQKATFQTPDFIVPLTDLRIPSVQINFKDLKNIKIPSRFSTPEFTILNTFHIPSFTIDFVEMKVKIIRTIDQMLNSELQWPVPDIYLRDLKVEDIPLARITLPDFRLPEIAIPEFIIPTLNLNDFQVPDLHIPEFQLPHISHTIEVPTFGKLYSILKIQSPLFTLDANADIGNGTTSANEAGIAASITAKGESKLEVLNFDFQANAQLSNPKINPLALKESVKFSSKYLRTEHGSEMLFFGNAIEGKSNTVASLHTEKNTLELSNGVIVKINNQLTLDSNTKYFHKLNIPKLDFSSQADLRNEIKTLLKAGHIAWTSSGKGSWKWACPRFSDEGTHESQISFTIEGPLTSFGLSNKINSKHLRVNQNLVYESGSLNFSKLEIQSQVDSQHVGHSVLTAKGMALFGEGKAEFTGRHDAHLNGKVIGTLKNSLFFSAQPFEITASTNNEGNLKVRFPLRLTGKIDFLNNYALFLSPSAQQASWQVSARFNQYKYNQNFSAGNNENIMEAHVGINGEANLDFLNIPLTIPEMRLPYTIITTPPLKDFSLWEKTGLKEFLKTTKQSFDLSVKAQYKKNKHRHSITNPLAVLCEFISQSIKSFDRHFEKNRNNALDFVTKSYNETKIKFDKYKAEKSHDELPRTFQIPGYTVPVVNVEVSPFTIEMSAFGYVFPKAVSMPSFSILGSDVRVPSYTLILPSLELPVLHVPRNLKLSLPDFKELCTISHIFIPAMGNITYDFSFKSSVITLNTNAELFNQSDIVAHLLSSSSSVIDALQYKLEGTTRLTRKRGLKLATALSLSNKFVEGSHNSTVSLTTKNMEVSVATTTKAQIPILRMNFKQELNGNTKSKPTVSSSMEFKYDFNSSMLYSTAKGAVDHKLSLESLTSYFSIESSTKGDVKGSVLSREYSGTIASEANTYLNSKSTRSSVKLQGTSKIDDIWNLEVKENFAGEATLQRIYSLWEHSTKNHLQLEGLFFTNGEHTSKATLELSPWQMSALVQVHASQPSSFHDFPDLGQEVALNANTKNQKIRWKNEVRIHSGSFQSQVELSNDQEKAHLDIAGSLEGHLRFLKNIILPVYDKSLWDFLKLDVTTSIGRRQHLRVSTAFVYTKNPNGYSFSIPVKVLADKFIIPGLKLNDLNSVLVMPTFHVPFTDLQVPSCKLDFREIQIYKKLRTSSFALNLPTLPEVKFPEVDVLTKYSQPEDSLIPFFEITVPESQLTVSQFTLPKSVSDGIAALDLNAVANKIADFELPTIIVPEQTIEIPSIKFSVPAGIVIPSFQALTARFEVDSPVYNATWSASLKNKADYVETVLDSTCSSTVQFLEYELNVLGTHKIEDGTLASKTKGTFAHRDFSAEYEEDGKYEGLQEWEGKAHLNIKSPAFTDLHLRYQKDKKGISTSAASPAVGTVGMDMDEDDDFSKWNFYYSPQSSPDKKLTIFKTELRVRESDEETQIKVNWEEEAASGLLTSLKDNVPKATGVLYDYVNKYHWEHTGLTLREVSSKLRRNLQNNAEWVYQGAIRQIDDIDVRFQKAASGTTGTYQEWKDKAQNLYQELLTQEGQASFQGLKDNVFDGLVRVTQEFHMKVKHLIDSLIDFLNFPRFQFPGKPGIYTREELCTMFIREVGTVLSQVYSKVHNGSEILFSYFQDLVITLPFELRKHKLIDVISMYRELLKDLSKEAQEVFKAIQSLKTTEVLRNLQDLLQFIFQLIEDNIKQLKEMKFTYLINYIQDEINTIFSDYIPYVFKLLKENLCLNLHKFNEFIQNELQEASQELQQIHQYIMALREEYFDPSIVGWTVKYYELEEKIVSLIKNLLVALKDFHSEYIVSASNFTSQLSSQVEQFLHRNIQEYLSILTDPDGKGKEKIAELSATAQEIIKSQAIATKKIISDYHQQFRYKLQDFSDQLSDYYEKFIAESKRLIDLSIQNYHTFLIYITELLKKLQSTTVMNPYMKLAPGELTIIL
- MEASUREMENT PROTOCOL: Immunoreactivity cell-free sandwich ELISA: binding of LDL to capture anti-apoB monoclonal antibody
- ASSAY CONTEXT: immunoreactivity cell-free assay of Example 3, yes/no
VALUE TYPE: Cell-Free Assay

Worked cases, Cell-Free Assay given:
| MOLECULAR STRING | MEASURED TARGET | Cell-Free Assay |
| --- | --- | --- |
| CCCN(CCC)C(=O)c1ccc(CSc2cc(C(C)(C)C)c(O)c(C(C)(C)C)c2)cc1 | specific epitope on apoB-100 of LDL (Homo sapiens, UniProt P04114) | no |
| CC(C)(C)c1cc(SCc2cccc(C(F)(F)F)c2)cc(C(C)(C)C)c1O | specific epitope on apoB-100 of LDL (Homo sapiens, UniProt P04114) | no |
| CCN(CC)S(=O)(=O)c1ccc(CSc2cc(C(C)(C)C)c(O)c(C(C)(C)C)c2)cc1 | specific epitope on apoB-100 of LDL (Homo sapiens, UniProt P04114) | no |
| CC(C)(C)c1cc(SCc2ccc(F)cc2C(F)(F)F)cc(C(C)(C)C)c1O | specific epitope on apoB-100 of LDL (Homo sapiens, UniProt P04114) | no |

Okay, now this compound:
Input: Which Cell-Free Assay is reported with specific epitope on apoB-100 of LDL (Homo sapiens, UniProt P04114) for this entry: CN(C)S(=O)(=O)c1ccc(CSc2cc(C(C)(C)C)c(O)c(C(C)(C)C)c2)cc1 ?
Output: yes
